- experimentalTarget: Steroidogenic factor 1 (Homo sapiens)
- assayMethodText: SF1 (NR5A1) inverse agonists, counter-screen for LRH-1 inverse agonist project, cell-based, luminescence, high throughput (AID 651614);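 also: cells cotransfected with StAR promoter reporter and SF1 expression vector; 0% = vehicle on cells with receptor and 100% = vehicle on cells lacking receptor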
- recordedConditions: cell-based SF1 luciferase reporter, at 3.6 µM, stronger effect = higher value
inhibition below 50% gives 0; inhibition at or above it gives 1.

compound | className
COc1ccc(OCCNC(=O)c2ccccc2OCC(=O)Nc2ccc(NC(C)=O)cc2)cc1 | 1
CC(C)(C)c1ccc(C(=O)N2CCCCCC2=O)cc1 | 1
O=C1C=CC2(C=C1)O[C@H](Cc1ccccc1)[C@@H](Cc1ccccc1)O2 | 1
O=C(NCCc1ccccc1)c1ccc2c(c1)OCCCO2 | 1
Cc1cc(NCCCCCCCNc2cc(C)nc3cc([N+](=O)[O-])ccc23)c2ccc([N+](=O)[O-])cc2n1 | 0
Cc1cc(-c2nnc(SCC(=O)Nc3cccc(C)c3C)n2N)n[nH]1 | 0
Cc1ccc(-n2nc(C)c(NC(=O)CCl)c2C)cc1 | 1
COC(=O)c1ccc(NC(=O)COc2cccc(-n3cnnn3)c2)cc1 | 0
O=C(Nc1ccc(Oc2ccccc2)cc1)c1csc([C@H]2C[C@H](O)[C@@H](CO)O2)n1 | 1
CC(=O)Nc1ccc(NC(=O)CSc2nnc(-c3ccco3)n2Cc2ccco2)cc1 | 1
O=C(NC(Nc1nc2ccc([N+](=O)[O-])cc2s1)(C(F)(F)F)C(F)(F)F)c1ccccc1Cl | 1
Cc1onc(-c2c(F)cccc2Cl)c1C(=O)c1ccc(F)cc1 | 0
CCCc1nc2c(=O)n(C)c(=O)nc-2n(C)n1 | 1
CC1Cc2ccccc2N1C1=CC(=O)CC(C)(C)C1 (centres undefined) | 1
COc1ccc(CCNc2ncnc3sc(C)cc23)cc1OC | 1
Clc1ccccc1-c1nc(N/N=C/c2cccnc2)c2ccccc2n1 | 1
COC(=O)c1ccc2nc(Nc3nc4c(F)cc(F)cc4s3)sc2c1 | 0
Cc1ccc2[nH]c(C)c(/C=C/c3cc[n+](C)cc3)c2c1 | 1
CC(=O)Nc1ccc(NC(=O)COC(=O)Cc2c[nH]c3ccccc23)cc1 | 1
NC1=CC(=O)C(=O)c2ccccc21 | 0
Cc1ccc(C(=O)N/N=C/c2ccc([N+](=O)[O-])s2)cc1 | 1
COC(=O)c1ccc(NC(=O)CN2CCN(c3ccc(Cl)cc3)CC2)cc1 | 0
CC(=O)c1cn(CC(=O)Nc2ccc(C)cc2C)c2ccccc12 | 1
CCOc1ccc(NC(=O)Cn2nc(-c3ccccc3Cl)n(CC)c2=S)cc1 | 1
CC(=NNC(=S)Nc1ccc(C)cc1)c1ccccn1 | 1
CC1(C(=O)NCc2ccco2)Cc2c(-c3ccccc3)ccnc2O1 (centres undefined) | 1
O=C(COC(=O)C1CCCCC1)NCCc1ccccc1 | 0
C=C1C(=O)[C@]23C[C@H]1CCC2[C@@]1(C)C(C[C@@H]3O)[C@](C)(C(=O)OC)CC[C@@H]1OC(C)=O (some centres undefined) | 1
CC(=O)Nc1ccc(SCC(=O)c2cc(C)n(Cc3cccs3)c2C)cc1 | 0
CCCCCCCCN1C(=O)[C@H](CC(=O)NCC23CC4CC(CC(C4)C2)C3)C[C@@]2(C(=O)OCC)CCCC=C12 | 0
CC1(C)Cc2ccccc2-c2nnnn21 | 0
Cc1c(NC(=O)C(C)OC(=O)c2ccc([N+](=O)[O-])s2)c(=O)n(-c2ccccc2)n1C (centres undefined) | 0
Cc1ccc(Oc2ccc(C(=O)NCc3ccncc3)cc2)cc1 | 1
CC1C/C(=C/c2ccncc2)C(=O)/C(=C/c2ccncc2)C1 (centres undefined) | 1
O=C(NCc1ccco1)c1ccc([N+](=O)[O-])o1 | 1
CN(C)c1ccc(C(=O)OCC(=O)Nc2ccc(N3CCOCC3)cc2)cc1 | 1
COc1cccc2c1C(=O)c1c(O)c3c(c(O)c1C2=O)CC(O)(C(=O)CO)CC3OC1CC(N(C)C)C(O)C(C)O1 (centres undefined) | 1
CC(NC(=O)c1ccco1)C(c1cccs1)N1CCN(c2ccccc2)CC1 (centres undefined) | 0
COc1cc(NC(=O)COc2cc(O)c3c(c2)OC(C)(C)CC3=O)cc(OC)c1OC | 1
COc1ccc(Oc2ccccc2/C=N/O)cc1 | 1
CC1=NN(c2nc3ccccc3[nH]2)C(=O)C1Cc1ccccc1 (centres undefined) | 1
